Measured TGI, listed per entry.
system: U251 CNS; assay: NCI tumour cell line growth inhibition, 48 h
Express your answer in µM, writing the number without its unit.

Cc1c2cnccc2c(C)c2c1c1ccccc1n2CC1CO1 (stereo not given)
9.1
COc1ccc(CN2C(=O)C(Cl)=C(Nc3cccc(O)c3)C2=O)cc1
21.1
CCC[CH2][Sn]([CH2]CCC)([O]C(=O)c1ccc(C)c(N)c1)[O]C(=O)c1ccc(C)c(N)c1
1.28

Which TGI value belongs to `COc1ccc(NC(=S)N/N=C/c2c(C)n(C)n(-c3ccccc3)c2=O)cc1` ? 51.7

====

test system: HOP-62 NSCLC; assay: NCI tumour cell line growth inhibition, 48 h
Entries annotated with measured TGI

COC(=S)OC1CC(n2cnc3c(=O)[nH]cnc32)OC1CO[Si](C)(C)C(C)(C)C (configuration not stated)
> 100 µM
CCOC(=O)C1(C(=O)OCC)OC(=O)NC2=C1CCCC2
> 100 µM

Here is the next item to consider.
Please report the recorded TGI for `Cc1oc2c(c1C)S(=O)(=O)C(C#N)=CN2` . > 100 µM

====

test system: HOP-92 NSCLC; experiment: NCI tumour cell line growth inhibition, 48 h
reportedEndpoint: TGI (µM)
Form entry: value (µM) — number only.

Recorded TGI, per entry:
O=C(Nc1cccc(Cl)c1)Nc1cc2ncncc2cc1OCc1cccc(F)c1
6.88
N=C1S/C(=C/c2ccc(-c3ccc4c(c3)C(=O)NC4=O)o2)C(=O)N1c1ccc(Br)cc1
8.56

Continue with the compound presented below.
// map `COc1cc(-c2nn(-c3ccc(NC(=O)NCCCNC(=O)c4ccccc4)cc3)cc2-c2ccncc2)ccc1Cl` to recorded TGI (system: HOP-92 NSCLC) 8.1

====

# TGI annotations
tested on: PC-3 prostate; experiment: NCI tumour cell line growth inhibition, 48 h

Cc1cccc(NC2=C(Cl)C(=O)N(Cc3ccc(Cl)cc3)C2=O)c1
8.67 µM
COc1ccc2c3c1O[C@H]1C(=O)C=CC4(n5[nH]c(=O)n(-c6ccccc6)c5=O)C(C2)N(C)CCC314 (some centres not stated)
> 100 µM
CC(=O)OCC1OC(N2C(=S)N[C@H]([C@@H](O)[C@H](O)[C@H](O)CO)[C@H]2O)C(OC(C)=O)C(OC(C)=O)C1OC(C)=O (some centres not stated)
> 100 µM
CC(O)(CCCCCl)c1nc2ccccc2s1 (configuration not stated)
> 100 µM
CCC(=C/[C@H](C)C/C=C/C(C)=C/[C@@H](C)C(=O)[C@@H](C)[C@H](O)[C@@H](C)CC)/C=C/[C@@H]1OC(=O)C=C[C@@H]1C
5.94 µM

Consider the compound shown here: `COc1ccc2[nH]c(C(O)(Cc3cccnc3)Cc3cccnc3)cc2c1` What is its recorded TGI? > 100 µM

Quick one: TGI for `Cc1ccc(S(=O)(=O)NCCN(CCNS(=O)(=O)c2ccc(C)cc2)S(=O)(=O)c2ccc(C)cc2)cc1` ? > 100 µM

====

system: ACHN renal; assay: NCI tumour cell line growth inhibition, 48 h; in the data active = GI50 below about 0.43 µM; inactive = the rest
Please answer using one outcome listed in t for active, f for inactive

What classification did `CCC[CH2][Sn]([CH2]CCC)([O]C(=O)c1ccc(C)c(N)c1)[O]C(=O)c1ccc(C)c(N)c1` end up with in this test? t

Name the outcome recorded for `Cc1cc(I)cc(CN(C)CCN2CCOCC2)c1O` in the assay. f

State the result this test recorded for `Oc1c(Cl)cc(Cl)c2ccc(Cn3cc(-c4cc(F)cc(F)c4)nn3)nc12` . f

Dear all, I need the recorded test outcome for `Cn1cc(C2=C(c3c4n(c5ccccc35)CCN(C(N)=S)C4)C(=O)NC2=O)c2ccccc21` , thank you. f

Entry `COc1cc(NC(=O)c2ccc(C(F)(F)F)nc2Nc2cc(Cl)ccc2C)cc(OC)c1OC` : call = ? f

====

test system: 786-0 renal; assay: NCI tumour cell line growth inhibition, 48 h
reportedEndpoint: TGI

Example entries and their recorded answers appear below.
O=c1c2ccccc2n2c(=S)[nH]nc2n1-c1ccccc1
> 100 µM
O=C1OC(CC(=O)c2ccccc2Cl)C(Cl)=C1Cl (stereo not drawn)
> 100 µM
CC(C)(C)N/N=C(\C(=O)Nc1ccc([N+](=O)[O-])cc1[N+](=O)[O-])c1nc2ccc([N+](=O)[O-])cc2[nH]c1=O
> 100 µM
N#Cc1ccc(Sc2ccccc2)cc1C#N
71 µM
C=C=C(C)C(=O)N(C(C)C)C(C)C
> 100 µM

Query (compound): `O=c1[nH]nc(Cc2ccccc2)n1O` ; field requested: TGI > 100 µM

// returns reported TGI for input `O=C(Nc1cccc(Cl)c1)Nc1cc2ncncc2cc1OCc1cccc(F)c1` > 100 µM

Report TGI for `CO/C(N)=C(\C#N)N=Cc1cccnc1` please. > 100 µM

Would you mind telling me what TGI value was observed for CCOC(=O)N1C(=O)C2C3C=CC(C2C1=O)C1C2C(=O)N(C(=O)OCC)C(=O)C2C31 (stereo not drawn) ? > 100 µM

# input compound: `c1cc2sc1CSCCSCCSC2` ; wanted: its TGI > 100 µM

Suppose we examine the compound `COc1ccccc1-n1c(C)nc2ccccc2c1=O` ; what TGI value has been reported? > 100 µM

Entry `CC(C)(C)OC(=O)NCCCCCCC(=O)Cc1ccccc1` : reported TGI = ? > 100 µM

====

Each entry below carries its recorded TGI.
system: SF-539 CNS; test: NCI tumour cell line growth inhibition, 48 h

Answered cases to consult:
COC(=S)OC1CC(n2cnc3c(=O)[nH]cnc32)OC1CO[Si](C)(C)C(C)(C)C (configuration not stated)
> 100 µM
N#C/C(=C\c1c(Cl)cccc1Cl)c1ccccc1
9.53 µM
C=C1C/C(=C/C)C(=O)O[C@@H]2CCN3CC=C(COC(=O)[C@]1(C)O)[C@H]23
> 100 µM
COC(=O)C(=O)C(C(=O)OC)C(=O)C(=O)Nc1ccccc1C(N)=O (configuration not stated)
> 100 µM
COc1cc(NC(=O)c2ccc(C(F)(F)F)nc2Nc2cc(Cl)ccc2C)cc(OC)c1OC
50.8 µM
CC(C1=CC=C2[C@@H]3CCC4CC(N(C)C)CC[C@]4(C)C3CC[C@]12C)N(C)C=O (some centres not stated)
> 100 µM
COc1ccc2c(=O)c(-c3cc4c(cc3OC)OCO4)coc2c1
> 100 µM
CNC(=S)NC(=S)N(C)C
> 100 µM
COc1cc2c(cc1OC)C(Cc1ccc(Oc3cc(CC4c5cc(OC)c(OC)cc5CCN4C)ccc3O)cc1)N(C)CC2 (configuration not stated)
30.6 µM
CCC1([N+](=O)[O-])CC2C=CC1C2 (configuration not stated)
> 100 µM

What TGI appears in the records for this compound with SF-539 CNS? `SCCCSCCSCCCSCCS` > 100 µM

TGI of CC1=C(O)C(=O)C2C(=O)C1C(C)C2c1ccc(C)cc1 (configuration not stated) on SF-539 CNS? > 100 µM

Return TGI measured with SF-539 CNS given this compound: CCn1cc(C(=O)N/N=C/c2ccc(Br)cc2)c(=O)c2cc(F)c(N3CCNC(C)C3)c(F)c21 (configuration not stated) 3.1 µM

Give recorded TGI with SF-539 CNS for the following compound: COc1cc(OC)cc(C2C(C#N)=C(N)Oc3c2ccc2ccc(O)cc32)c1 (configuration not stated) < 0.01 µM

Given the entry COc1ccc(C(O)c2cc3c(N)c(C(=O)Nc4cccc(OC)c4)sc3nc2C)cc1 (configuration not stated) , what TGI was observed with SF-539 CNS? 3.03 µM

// map `CC1=Nn2c(nnc2-c2ccc(Cl)cc2)NC(C)(C)C1` to recorded TGI (system: SF-539 CNS) > 100 µM

Form field: TGI recorded for CN1C(=O)N(C)C(N2CCCC2)c2c1nc1ccccn1c2=O (configuration not stated) with SF-539 CNS (enter value) > 100 µM

So what TGI did `CC1(C)C(=NN=C(N)N)C(C)(C)C1=NN=C(N)N` get with SF-539 CNS? > 100 µM

Notebook entry, SF-539 CNS assay: TGI of `N#C/C(=C\c1cc(Br)c(O)c(Br)c1)c1ccccn1` = ? > 100 µM

API: value(readout= TGI, system= SF-539 CNS, query= O=C(O)CC1OCC=C2C[N+]3([O-])CCC45c6ccccc6NC4C1C2CC53 (configuration not stated) ) > 100 µM

Kindly state the measured TGI obtained for `Oc1c(Cl)cc(Cl)c2ccc(Cn3cc(-c4cc(F)cc(F)c4)nn3)nc12` with SF-539 CNS. 3.08 µM

Param readout = TGI; param system = SF-539 CNS; param query = `ClCCN1CCOC1=C1C=CC=C1` ; response: value > 100 µM

====

test system: KM12 colon; assay: NCI tumour cell line growth inhibition, 48 h
reportedEndpoint: TGI

Completed entries (count: 8):
NC(=O)n1ncc(Cl)c(Cl)c1=O
> 100 µM
Cc1ccc(C)c(COc2cc(NC(=O)c3ccc4c(c3)OCO4)ccc2N(C)S(C)(=O)=O)c1
1.06 µM
COC1/C=C/C(C)C(OC)CC(O)/C=C/C(C)C(C(C)C(OC)C(C)CCC(=O)C(C)C(C/C=C/N(C)C=O)OC)OC(=O)/C=C/C=C(\C)CC(OC)CC2=CC(=O)O[C@@H](C(C)C(OC)C1)[C@H]2O (some centres undefined)
> 6.11 µM
CCOC(=O)N1C(=O)C2C3C=CC(C2C1=O)C1C2C(=O)N(C(=O)OCC)C(=O)C2C31 (centres undefined)
> 100 µM
CSc1nc(SC)c2cnn(CC3CO3)c2n1 (centres undefined)
39.2 µM
O=c1[nH]c2ccc(N=Cc3c(O)[nH]c4ccccc34)cc2[nH]1
> 25 µM
O=[N+]([O-])c1nccn1COCCI
> 100 µM
O=C1C(c2ccccc2)=[N+]([O-])c2cc([N+](=O)[O-])c(/C(Cl)=C/c3ccccc3)cc21
59.8 µM

Turning now to a further compound:
Which TGI is listed for `[N-]=[N+]=NCCCn1c2c(c3ccccc3c1=O)C(=O)c1cc(Br)ccc1-2` ? > 100 µM

All values here come from PubChem BioAssay (NCI).
